assay: AUC (0 to 12 hrs) in Sprague-Dawley rat at 10 mg/kg, iv; format: ADME, organism-based; parameters: time < 12 hr, route intravenous, dose 10 mg/kg; conditions: in vivo
# AUC listing for each entry below

COMPOUND	AUC, µg·h/mL
CN(C)C(=O)c1cc2cnc(Nc3ccc(C(=O)NCCCCCCNc4cccc5c4C(=O)N(C4CCC(=O)NC4=O)C5=O)cc3)nc2n1C1CCCC1 (configuration not stated)	161
CN(C)C(=O)c1cc2cnc(Nc3ccc(C(=O)NCCCCCCNc4cccc5c4C(=O)N(C4CCC(=O)N(COC(=O)C(C)(C)C)C4=O)C5=O)cc3)nc2n1C1CCCC1 (configuration not stated)	95.7
